experiment: general mammalian cell viability loss – inhibitor set, cherry-pick, set 2, cytotoxicity control for miR-122 modulator project, dose response (AID 720697); settings: HEK293T viability, CellTiter-Glo luminescence, 48 h; series mostly up to 26 µM;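 also: 0% = median of neutral control wells and -100% = MG132 positive control wells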
Measured potencies and affinities stand elsewhere. Results filed as inconclusive are left out. Calls of active or inactive are those of the source.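 The calls were made as follows: active = signal loss with fitted half-maximal concentration at or below twice the top valid tested dose in every test run; inconclusive = runs disagree, flat 30 to 70% signal loss, or poor fit; inactive = all runs flat, opposite direction, or potency beyond limit.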
attributeMeasured: activity change, negative = cytotoxicity

Solved cases (6 shown):
[ask] Provide activity change, negative = cytotoxicity value for the following compound: "Cc1cc(C)n(C(=O)Cn2nc(C)c(Br)c2C)n1"
[reply] inactive

[ask] Provide activity change, negative = cytotoxicity value for the following compound: "COCC(=O)Nc1ccc2c(c1)C(=O)N(C)[C@@H]1CC[C@@H](CC(=O)NC3CCCC3)O[C@@H]1CO2"
[reply] inactive

[ask] Provide activity change, negative = cytotoxicity value for the following compound: "CNC(=O)C[C@H]1CC[C@H]2[C@H](COc3ccc(NC(=O)c4cccc(F)c4)cc3C(=O)N2C)O1"
[reply] inactive

[ask] Provide activity change, negative = cytotoxicity value for the following compound: "CN1C(=O)c2cc(NC(=O)c3cccc(F)c3)ccc2OC[C@H]2O[C@@H](CC(=O)O)CC[C@@H]21"
[reply] inactive

[ask] Provide activity change, negative = cytotoxicity value for the following compound: "O=C(N/N=C/c1ccco1)c1cccc(N2CCCC2=O)c1"
[reply] inactive

[ask] Provide activity change, negative = cytotoxicity value for the following compound: "C[C@H]1CN([C@@H](C)CO)C(=O)c2cc(C#CC3CCCC3)cnc2O[C@H]1CN(C)C(=O)Cc1ccccn1"
[reply] inactive

---
[ask] Provide activity change, negative = cytotoxicity value for the following compound: "COc1ccc(OC)c(Nc2cc(C)nc3ccc(C)cc23)c1"
[reply] -30% [at 6 µM] (inactive)

[ask] Provide activity change, negative = cytotoxicity value for the following compound: "COCC(=O)N(C)C[C@H]1Oc2cc(-c3ccc(C#N)cc3)ccc2S(=O)(=O)N([C@H](C)CO)C[C@H]1C"
[reply] inactive

[ask] Provide activity change, negative = cytotoxicity value for the following compound: "CN1C(=O)c2cc(NC(=O)c3cccs3)ccc2OC[C@@H]2O[C@@H](CC(=O)N3CCOCC3)CC[C@H]21"
[reply] inactive
